Test: In vitro cellular cytotoxicity assay
Assay type: cell-based
Conditions: human, normal liver cells L02; L02, pentapeptide 2.5-200 μM, FIG. 6; read-out: cell survival rate
Protocol: When the U87MG cells, MCF-7 cells and normal liver cells L02 were grown to 90% confluent or higher, the cells were digested with 0.25% trypsin and then suspended in a complete growth medium to obtain a single cell suspension. The cells were plated at a density of 3000 cells/well in a 96-well plate, and cultured at 37° C. in an incubator containing 5% CO2. After 24-hour incubation, the medium was changed to a low-serum culture medium supplemented with 1% FBS. […]
Where a SMILES comes first, the peptide text is derived from it. [ ]: non-standard residue; d: D form.
Quantity Kind: viability

Compound	Observed
CSCC[C@H](NC(=O)[C@H](CC(N)=O)NC(=O)[C@@H](CCCNC(=N)N)NC(=O)[C@H](Cc1c[nH]c2ccccc12)NC(=O)[C@@H](N)CCCNC(=N)N)C(N)=O [pentapeptide, Arg-Trp-Arg-Asn-Met] (H-RW[dR]NM-NH2; N-terminus and C-terminus assumed)	≥ 80%

====

Assay: In vitro cellular cytotoxicity assay
Format: cell-based
Conditions: human, MCF-7 cells; MCF-7, pentapeptide 2.5-200 μM, FIG. 6; read-out: cell survival rate
Where a SMILES comes first, the peptide text is derived from it. [ ]: non-standard residue; d: D form.

Compound	viability
CSCC[C@H](NC(=O)[C@H](CC(N)=O)NC(=O)[C@@H](CCCNC(=N)N)NC(=O)[C@H](Cc1c[nH]c2ccccc12)NC(=O)[C@@H](N)CCCNC(=N)N)C(N)=O [pentapeptide, Arg-Trp-Arg-Asn-Met] (H-RW[dR]NM-NH2; N-terminus and C-terminus assumed)	≥ 80%
